- TARGET OR SYSTEM: CYP2D6 (Homo sapiens, UniProt P10635)
- Sequence (P10635 whole entry): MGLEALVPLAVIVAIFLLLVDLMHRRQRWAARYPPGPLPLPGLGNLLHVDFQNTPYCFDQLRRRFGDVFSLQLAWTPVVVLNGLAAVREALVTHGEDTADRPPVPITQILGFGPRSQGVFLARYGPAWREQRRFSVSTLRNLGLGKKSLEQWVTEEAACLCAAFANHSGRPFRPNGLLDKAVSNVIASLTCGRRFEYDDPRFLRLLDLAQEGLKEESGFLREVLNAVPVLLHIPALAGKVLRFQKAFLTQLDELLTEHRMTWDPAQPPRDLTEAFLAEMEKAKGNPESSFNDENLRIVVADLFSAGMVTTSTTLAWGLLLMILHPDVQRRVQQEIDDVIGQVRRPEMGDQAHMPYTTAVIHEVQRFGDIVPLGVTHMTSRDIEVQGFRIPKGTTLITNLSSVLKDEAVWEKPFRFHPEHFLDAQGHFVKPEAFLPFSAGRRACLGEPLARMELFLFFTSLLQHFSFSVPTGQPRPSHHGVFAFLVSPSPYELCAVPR
- PROTOCOL DESCRIPTION: P450-Glo CYP2D6 inhibition assay (bioluminescence-based; pre-screen at 100 µM and IC50 determination)
pIC50: −log10 of the molar value.
ASSAY METRIC: pIC50

MOLECULE | ASSAY METRIC | REPORTED
COC(=O)C1=CO[C@@H](C)[C@@H]2CN3CC[C@]4(C(=O)Nc5ccccc54)[C@@H]3C[C@H]12 [Compound 1, Pteropodine] | pIC50 | 4.47
CCC1=CC2CN3CCc4c([nH]c5ccccc45)C(C(=O)OC)(C2)C13 (single isomer, unassigned; (+)) [Compound 7, (+)-Catharanthine] | pIC50 | 6.23
COc1cc2c(cc1O)-c1c(O)c(OC)cc3c1[C@H](C2)N(C)CC3 [Compound 18, Bracteoline] | pIC50 | 5.68
O=C(O)c1ccccc1-n1ccc2c([nH]c3ccccc32)c1=O [Compound 5, Secofascaplysic acid] | pIC50 | 4.30
COc1ccc(Cc2nccc3cc(OC)c(OC)cc23)cc1OC [Compound 6, Papaverine] | pIC50 | 5.15
COc1cc2c(cc1OC)C1Cc3cc(O)c(O)cc3CN1CC2 (stereo not shown) [Compound 14, Spinosine] | pIC50 | 6.93
CC=C1C2CCN3CCC4(C(=C2C(=O)OC)Nc2ccccc24)C13 (single isomer, unassigned; (+)) [Compound 17, (+)-Condylocarpine] | pIC50 | 5.09

###

Entries annotated with measured P450-Glo Detection Reaction MEAN (total luminescence)
- Tested on: P450-Glo detection reaction (unspecific esterase and modified firefly-luciferase)
- PROTOCOL DESCRIPTION: P450-Glo detection reaction control (luciferin-EGE, esterase, luciferase, test compound, no CYP2D6)
- PROTOCOL CONDITIONS: 50 µM test compound, no CYP2D6, DMSO control = 100
ASSAY METRIC: P450-Glo Detection Reaction MEAN (total luminescence) (% TL)

COMPOUND | REPORTED
COc1ccc(CC2c3cc(O)c(OC)cc3CCN2C)cc1O (single isomer, unassigned; (+)) [Compound 19, (+)-Reticuline] | 98.94
COc1cc2c(cc1O)-c1c(O)c(OC)cc3c1[C@H](C2)N(C)CC3 [Compound 18, Bracteoline] | 87.70
O=C(O)c1ccccc1-n1ccc2c([nH]c3ccccc32)c1=O [Compound 5, Secofascaplysic acid] | 79.54
O=C(NCCCCNCCCNC(=O)c1ccc(O)c(O)c1)c1ccc(O)c(O)c1 [Compound 4, Pistillarin] | 86.39
COc1ccc2c(c1OC)CN1CCc3cc4c(cc3C1C2C)OCO4 (stereo not shown) [Compound 3, Thalictrivacine] | 91.77
COC1=C[C@]23CCN(C)[C@H](Cc4ccc(OC)c(O)c42)C3=CC1=O [Compound 20, (+)-Salutaridine] | 97.06
COc1ccc(C[C@H]2c3cc(OC)c(OC)cc3CCN2C)cc1O [Compound 11, (+)-Laudanidine] | 94.14

###

- TARGET OR SYSTEM: CYP2D6 (Homo sapiens, UniProt P10635)
- PROTOCOL DESCRIPTION: P450-Glo CYP2D6 inhibition assay (bioluminescence-based; pre-screen at 100 µM and IC50 determination)
- PROTOCOL CONDITIONS: ranked by IC50; inactives from pre-screen at 100 µM
ASSAY METRIC: classification of CYP2D6 inhibition (actives / weak actives / inactives)

MOLECULE | REPORTED
COC(=O)C1=CO[C@@H](C)[C@@H]2CN3CC[C@@]4(C(=O)Nc5ccccc54)[C@@H]3C[C@H]12 | weak actives
Oc1ccc(/C=C/c2cc(O)cc(O)c2)cc1 [Compound 24, Resveratrol, reference compound] | weak actives
COC1=C[C@]23CCN(C)[C@H](Cc4ccc(OC)c(O)c42)C3=CC1=O [Compound 20, (+)-Salutaridine] | weak actives
